Reference source: ChEMBL document CHEMBL1129187

# Test system: C8166
# ASSAY_COMMENT: Compound was evaluated for the inhibition of p24 viral antigen production in C-8166 cells.
# Assay type: functional, cell-based
# EXPERIMENTAL_PARAMETERS: Homo sapiens
Item-by-item account of EC50
Form entry: value (nM) — number only.

INPUT: Form: Entry = Cc1cn([C@H]2C[C@H](N=[N+]=[N-])[C@@H](CO)O2)c(=O)[nH]c1=O | System = C8166 | EC50 = ____
OUTPUT: 40

INPUT: Form: Entry = C=C(/C=C/P(=O)(O)O)CCn1cnc2c(O)nc(N)nc21 | System = C8166 | EC50 = ____
OUTPUT: 8000

INPUT: Form: Entry = O=c1[nH]cnc2c1ncn2[C@H]1CC[C@@H](CO)O1 | System = C8166 | EC50 = ____
OUTPUT: 900

INPUT: Form: Entry = Nc1ncnc2c1ncn2CCOCP(=O)(O)O | System = C8166 | EC50 = ____
OUTPUT: 1500
